- Tested on: CD8+ T cells of healthy HLA-A*02 donors
- protocol.text: In vitro immunogenicity: T-cell priming with aAPCs loaded with peptide/MHC and anti-CD28, pMHC multimer readout
- Format: cell-based, human
- run.conditions: in vitro immunogenicity, HLA-A*02 restricted peptides; percentage of positive wells among evaluable
attribute.measured: Wells positive [%]

For orientation, consider the following solved cases.
substance	reported.result
246 (ALAGIVTNV; listed as Homo sapiens) [compound 246]	+ (<20% = +)
121 (ALYVQAPTV; listed as Homo sapiens) [compound 121]	+ (<20% = +)
77 (ALYGNVQQV; listed as Homo sapiens) [compound 77]	+ (<20% = +)
253 (KLLAVIHEL; listed as Homo sapiens) [compound 253]	++ (20%-49% = ++)
11 (LLDPKTIFL; listed as Homo sapiens) [compound 11]	++ (20%-49% = ++)

Wells positive [%] in this record for 4 (VLFGELPAL; listed as Homo sapiens) [compound 4] : + (<20% = +)

----------
- tested.target: HLA-A*02:01 (Homo sapiens, UniProt P04439, D140Y/D185E/D98H/E176V/E277Q/G131W/G231S/I119V/I121R/I166T/I218V/L300P/L318F/N151K/N90K/P208A/P217A/Q86G/Q94H/R138H/R169H/T345S)
- Construct: made in house
- protocol.text: MHC binding assay: UV-ligand exchange with β2m ELISA (peptide exchange yield)
- run.conditions: binding to HLA-A*02:01 evaluated by peptide exchange yield (UV-ligand exchange, β2m ELISA)
attribute.measured: Peptide exchange

Observe how each entry below is paired with its result.
substance	Peptide exchange
154 (AIIKEIQTV; listed as Homo sapiens) [compound 154]	++ (≧20% = ++)
195 (VIIQNLPAL; listed as Homo sapiens) [compound 195]	+++ (≧50 = +++)
270 (TLLTFFHEL; listed as Homo sapiens) [compound 270]	+++ (≧50 = +++)
80 (VLTGQVHEL; listed as Homo sapiens) [compound 80]	+++ (≧50 = +++)
236 (KMSELQTYV; listed as Homo sapiens) [compound 236]	+++ (≧50 = +++)
212 (MTLSEIHAV; listed as Homo sapiens) [compound 212]	++ (≧20% = ++)

The reported value for 276 (RMPTVLQCV; listed as Homo sapiens) [compound 276] in terms of Peptide exchange is +++ (≧50 = +++)

So for 272 (FVMEGEPPKL; listed as Homo sapiens) [compound 272] , the logged Peptide exchange turned out to be ++ (≧20% = ++)

For 256 (FLNDIFERI; listed as Homo sapiens) [compound 256] the substance record lists Peptide exchange as +++ (≧50 = +++)

Notebook: 285 (MLLDTVQKV; listed as Homo sapiens) [compound 285] , Peptide exchange read as +++ (≧50 = +++)
